experiment: Phase 1 SAD/MAD study: plasma pharmacokinetics of Compound 1a (LC-MS-MS, noncompartmental analysis); format: in vivo, human; conditions: human, plasma, oral, 125 mg, MAD 125 mg q12h for 7 days, average, plasma; read-out: Day 7 Tmax
Endpoint Label: Tmax at 7 days (h)
Answers are plain numbers, in h.

input: So what's the measured Tmax at 7 days for this one? `O.O=C([O-])c1nn[nH]c1Oc1ccc(-c2ccc(C3CC(F)(F)C3)cc2)cc1.[Na+]`
output: 2.04

---

assay: Phase 1 SAD/MAD study: plasma pharmacokinetics of Compound 1a (LC-MS-MS, noncompartmental analysis); assay type: in vivo, human; settings: human, plasma, oral, 750 mg, MAD 750 mg qd for 7 days, average, plasma; read-out: Day 7 Cmax
Endpoint Label: Cmax at 7 days (ng/mL)
Answers are plain numbers, in ng/mL.

input: So what's the measured Cmax at 7 days for this one? O.O=C([O-])c1nn[nH]c1Oc1ccc(-c2ccc(C3CC(F)(F)C3)cc2)cc1.[Na+] [Compound 1a]
output: 24300
